Target: T1, TFAM HMG Box A (UniProt Q00059 50-118)
T1 sequence: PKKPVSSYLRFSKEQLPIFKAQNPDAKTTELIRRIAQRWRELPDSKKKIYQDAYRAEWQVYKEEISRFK
Test: fluorescence anisotropy; FA: 50 mM HEPES-Na pH 7.4, 150 mM NaCl, 1 mM DTT, 20 C, 500 pM FM-DNA, Hill fit; EMSA: 5 nM FM-DNA, 8% PAGE, 0.33x TBE
Details: protein: recombinant; label: 5'-6FAM; G-quadruplex possible (previous studies)
attributeMeasured: pKd
Worth noting: pKd values are minus log10 of concentrations stated in mol/L.

pKd measured on GGGGACGACGTCGTGGGGGGG (XNA, phosphorothioate (positions in Fig 1A)) [CpG-A (PS)] = 7.15

# credit: paper PMC4900672
